# Assay Target: T1, human IL-11 (AAH12506.1, Pro22-Leu199) (human, UniProt P20809 22-199)
# T1 construct: The range Pro22-Leu199 counts on AAH12506.1; The Octet runs say only 'human IL-11'; also called hIL-11
# T1 chain: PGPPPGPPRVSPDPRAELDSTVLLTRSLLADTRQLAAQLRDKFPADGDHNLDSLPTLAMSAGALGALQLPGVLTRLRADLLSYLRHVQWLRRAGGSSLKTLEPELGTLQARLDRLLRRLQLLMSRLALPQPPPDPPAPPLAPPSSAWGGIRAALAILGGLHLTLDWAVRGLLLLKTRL
# Method: BLI (Octet), antibody captured, human IL-11 in solution
Recorded Endpoint: koff
Could you write the number and then its unit?

The following binders have reported results that may help.
| Binder | Result |
| --- | --- |
| hz18A10-VH + hz18A10-VLm17 (antibody, V domains shown, Constant regions not restated for this antibody) VH: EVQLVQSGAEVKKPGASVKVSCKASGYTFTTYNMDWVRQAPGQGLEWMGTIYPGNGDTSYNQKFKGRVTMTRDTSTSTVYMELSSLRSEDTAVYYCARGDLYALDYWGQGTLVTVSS VL: DIQMTQSPSSLSASVGDRVTITCKASQSVYRDVAWYQQKPGKAPKLLIYRASNRYTGVPSRFSGSGSGTDFTFTISSLQPEDIATYYCQHDYSSPYTFGQGTKLEIK | 0.000326 s⁻¹ |
| hz18A10-VHm17 + hz18A10-VLm19 (antibody, V domains shown, Constant regions not restated for this antibody) VH: EVQLVQSGAEVKKPGASVKVSCKASGYTFTHYDMDWVRQAPGQGLEWMGTIYPGEGDTSYNQKFKGRVTMTRDTSTSTVYMELSSLRSEDTAVYYCARGDLYALDYWGQGTLVTVSS VL: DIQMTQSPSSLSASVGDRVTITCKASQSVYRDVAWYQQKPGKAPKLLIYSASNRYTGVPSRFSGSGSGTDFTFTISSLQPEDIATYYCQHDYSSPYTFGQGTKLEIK | 8.23e-06 s⁻¹ |
| hz18A10-VHm12 + hz18A10-VLm19 (antibody, V domains shown, Constant regions not restated for this antibody) VH: EVQLVQSGAEVKKPGASVKVSCKASGYTFTHYDMDWVRQAPGQGLEWMGTIYPGNGDTSYNQKFKGRVTMTRDTSTSTVYMELSSLRSEDTAVYYCARGDLYALDYWGQGTLVTVSS VL: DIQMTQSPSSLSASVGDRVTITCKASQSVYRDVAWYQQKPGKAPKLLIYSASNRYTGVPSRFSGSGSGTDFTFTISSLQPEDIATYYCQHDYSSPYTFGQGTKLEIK | 0.000173 s⁻¹ |
| hz18A10-VHm2 + hz18A10-VL (antibody, V domains shown, Constant regions not restated for this antibody) VH: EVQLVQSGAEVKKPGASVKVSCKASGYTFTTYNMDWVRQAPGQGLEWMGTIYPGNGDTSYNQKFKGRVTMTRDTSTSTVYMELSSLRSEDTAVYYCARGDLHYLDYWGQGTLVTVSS VL: DIQMTQSPSSLSASVGDRVTITCKASQSVSNDVAWYQQKPGKAPKLLIYSASNRYTGVPSRFSGSGSGTDFTFTISSLQPEDIATYYCQHDYSSPYTFGQGTKLEIK | 0.00158 s⁻¹ |

# per-item lookup of koff; items listed below
1. hz18A10-VHm16 + hz18A10-VLm19 (antibody, V domains shown, Constant regions not restated for this antibody) VH: EVQLVQSGAEVKKPGASVKVSCKASGYTFTHYDMDWVRQAPGQGLEWMGTIYPGNADTSYNQKFKGRVTMTRDTSTSTVYMELSSLRSEDTAVYYCARGDLYALDYWGQGTLVTVSS VL: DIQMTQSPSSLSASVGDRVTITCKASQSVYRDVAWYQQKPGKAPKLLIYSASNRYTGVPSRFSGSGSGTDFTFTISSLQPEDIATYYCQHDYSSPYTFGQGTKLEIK
2. hz18A10-VHm1 + hz18A10-VLm11 (antibody, V domains shown, Constant regions not restated for this antibody) VH: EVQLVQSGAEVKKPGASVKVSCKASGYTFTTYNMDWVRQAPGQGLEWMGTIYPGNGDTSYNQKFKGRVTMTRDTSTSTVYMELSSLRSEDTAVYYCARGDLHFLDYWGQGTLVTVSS VL: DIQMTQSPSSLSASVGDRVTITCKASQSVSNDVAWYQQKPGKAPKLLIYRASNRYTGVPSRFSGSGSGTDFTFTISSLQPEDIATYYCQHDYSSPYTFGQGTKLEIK

Output:
["0.00012 s⁻¹", "0.000287 s⁻¹"]

I have 2 binders here; please give me koff for each one.
1. hz18A10-VHm11 + hz18A10-VLm19 (antibody, V domains shown, Constant regions not restated for this antibody) VH: EVQLVQSGAEVKKPGASVKVSCKASGYTFTHYNMDWVRQAPGQGLEWMGTIYPGNGDTSYNQKFKGRVTMTRDTSTSTVYMELSSLRSEDTAVYYCARGDLYALDYWGQGTLVTVSS VL: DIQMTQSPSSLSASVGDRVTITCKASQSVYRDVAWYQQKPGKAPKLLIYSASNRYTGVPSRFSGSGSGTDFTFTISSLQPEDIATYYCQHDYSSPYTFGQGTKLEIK
2. hz18A10-VH + hz18A10-VLm18 (antibody, V domains shown, Constant regions not restated for this antibody) VH: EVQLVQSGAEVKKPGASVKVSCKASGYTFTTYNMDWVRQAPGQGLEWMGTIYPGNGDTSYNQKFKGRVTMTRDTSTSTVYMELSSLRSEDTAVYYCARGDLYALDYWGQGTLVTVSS VL: DIQMTQSPSSLSASVGDRVTITCKASQSVYRDVAWYQQKPGKAPKLLIYRASSRYTGVPSRFSGSGSGTDFTFTISSLQPEDIATYYCQHDYSSPYTFGQGTKLEIK

Output:
["0.000119 s⁻¹", "0.0003 s⁻¹"]

Quick one: give me koff for each item below, same order please.
1. hz18A10-VHm15 + hz18A10-VLm19 (antibody, V domains shown, Constant regions not restated for this antibody) VH: EVQLVQSGAEVKKPGASVKVSCKASGYTFTHYSMDWVRQAPGQGLEWMGTIYPGNGDTSYNQKFKGRVTMTRDTSTSTVYMELSSLRSEDTAVYYCARGDLYALDYWGQGTLVTVSS VL: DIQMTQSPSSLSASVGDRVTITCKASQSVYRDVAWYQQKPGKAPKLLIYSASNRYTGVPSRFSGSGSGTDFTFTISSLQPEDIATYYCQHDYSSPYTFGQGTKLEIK
2. hz18A10-VHm1 + hz18A10-VLm9 (antibody, V domains shown, Constant regions not restated for this antibody) VH: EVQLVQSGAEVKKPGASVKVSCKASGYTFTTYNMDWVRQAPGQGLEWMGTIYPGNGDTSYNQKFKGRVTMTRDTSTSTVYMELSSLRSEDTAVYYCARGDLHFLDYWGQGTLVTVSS VL: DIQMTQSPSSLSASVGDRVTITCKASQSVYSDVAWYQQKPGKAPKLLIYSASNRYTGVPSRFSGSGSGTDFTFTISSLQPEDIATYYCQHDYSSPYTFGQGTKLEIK

Output:
1: 0.000263 s⁻¹; 2: 0.000963 s⁻¹
